- Test target: cAMP and cAMP-inhibited cGMP 3',5'-cyclic phosphodiesterase 10A (Homo sapiens)
- Sequence (Q9Y233 whole entry): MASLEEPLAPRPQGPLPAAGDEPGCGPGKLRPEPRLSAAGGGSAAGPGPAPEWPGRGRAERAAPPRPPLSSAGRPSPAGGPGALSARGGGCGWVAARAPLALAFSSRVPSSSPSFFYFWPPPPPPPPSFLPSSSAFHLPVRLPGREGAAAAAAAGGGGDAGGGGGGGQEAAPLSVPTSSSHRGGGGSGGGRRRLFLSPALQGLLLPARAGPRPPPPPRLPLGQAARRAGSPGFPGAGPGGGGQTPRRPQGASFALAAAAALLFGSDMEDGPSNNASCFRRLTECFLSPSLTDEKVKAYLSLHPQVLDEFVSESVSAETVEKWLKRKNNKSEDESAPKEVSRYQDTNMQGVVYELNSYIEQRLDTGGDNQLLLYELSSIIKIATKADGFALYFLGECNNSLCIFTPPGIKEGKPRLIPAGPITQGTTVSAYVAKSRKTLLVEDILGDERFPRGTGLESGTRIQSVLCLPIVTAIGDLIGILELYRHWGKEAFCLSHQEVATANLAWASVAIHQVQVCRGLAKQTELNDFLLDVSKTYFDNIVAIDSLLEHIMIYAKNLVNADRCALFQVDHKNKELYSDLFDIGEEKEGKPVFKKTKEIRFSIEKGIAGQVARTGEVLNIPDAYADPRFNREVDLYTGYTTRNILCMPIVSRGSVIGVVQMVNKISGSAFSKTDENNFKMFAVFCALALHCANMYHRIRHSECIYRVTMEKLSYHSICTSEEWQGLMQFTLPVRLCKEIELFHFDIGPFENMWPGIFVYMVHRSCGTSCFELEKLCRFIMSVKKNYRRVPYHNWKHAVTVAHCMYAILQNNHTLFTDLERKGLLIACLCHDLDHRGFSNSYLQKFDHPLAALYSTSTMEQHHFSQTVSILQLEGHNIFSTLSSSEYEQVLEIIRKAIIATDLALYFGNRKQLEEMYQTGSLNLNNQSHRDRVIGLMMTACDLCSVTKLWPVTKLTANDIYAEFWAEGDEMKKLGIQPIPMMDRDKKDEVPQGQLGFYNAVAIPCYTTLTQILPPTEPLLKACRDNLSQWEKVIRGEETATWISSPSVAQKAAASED
Exam item: assign yes (1) to entries whose IC50 is below 4 nM and no (0) to entries at or above 4 nM. Note that a value of exactly 4 nM receives no (0).

Prompt: Would you kindly verify if IC50 of "Cc1ncc(C)n2nc(CCc3nc(N(C)C)nn3C)nc12" is strictly less than 4 nM?
Completion: no (0)

Prompt: Would you kindly verify if IC50 of "Cn1nc(N2CCCC2)nc1CCc1nc2c(Br)cc(C(F)(F)F)cn2n1" is strictly less than 4 nM?
Completion: no (0)

Prompt: Would you kindly verify if IC50 of "Cc1ncc(C)n2nc(CCc3nc(N4CCCC4)n(C)n3)nc12" is strictly less than 4 nM?
Completion: yes (1)

Prompt: Would you kindly verify if IC50 of "Cc1c(C#N)ccc2nc(CCc3nc(N4CCCC4)nn3C)nn12" is strictly less than 4 nM?
Completion: yes (1)

Prompt: Would you kindly verify if IC50 of "Cc1ccn2nc(CCc3nc(N4CCCC4)nn3C)nc2c1C" is strictly less than 4 nM?
Completion: no (0)
